Would you kindly list pEC50 for each of these molecules?
- Tested on: CEM cells HIV-1 protection, formazan growth assay
- Test Method Notes: NCI AIDS Antiviral Assay
pEC50: −log10 of the molar value.

The cases that follow already have their pEC50 on record.
Molecule: Nc1nc(-c2ccc(Cl)cc2)nc2sc3c(c12)CCCCC3
Observed Value: < 4.52

Molecule: COc1ccc(C2c3cc4c(cc3OC(Nc3ccccc3)C2C)OCO4)cc1 (stereo unspecified)
Observed Value: < 3.70

Molecule: Cc1ccc2c(c1C)CC1(Cc3c(ccc4c3CCC4)C1=O)C2=O (stereo unspecified)
Observed Value: < 4.00

Record pEC50 per entry; entries follow.
1. Nc1ncc2c(ncn2CCO)n1
2. COC(=O)C(CC(=O)Nc1ccc(C)cc1)C(=O)C(=O)Nc1c(C(C)C)cccc1C(C)C (stereo unspecified)
3. S=C1SC(=Nc2ccccc2)C(=Nc2ccccc2)N1c1ccc2ccccc2c1

Response line:
1: < 3.55; 2: < 4.10; 3: < 3.70

---

- Tested on: CEM cells HIV-1 protection, formazan growth assay
- Test Method Notes: NCI AIDS Antiviral Assay
- Method: The ability of compounds to protect human CEM cells from HIV-1 infection is measured as a screen for new compounds capable of inhibiting the HIV virus. Five concentrations of drug were tested on uninfected and infected cells and cell growth was measured using a soluble formazan assay. […] Compounds that provided at least 50% protection were retested. Compounds that provided at least 50% protection on retest were listed as moderately active. […]
pEC50: −log10 of the molar value.
Assay Readout: pEC50

The cases that follow already have their pEC50 on record.
Molecule: CN1C=CC(C(C(N)=O)c2ccccc2)c2ccccc21 (stereo not given)
Assay Readout: pEC50
Observed Value: < 3.70
--
Molecule: CCC/C=C/C=C/C(=O)OC1C(C)C2(O)C3C=C(C)C(=O)C3CC(COC(C)=O)=CC2C2C(C)(C)C12OC(=O)C(C)C (stereo not given)
Assay Readout: pEC50
Observed Value: 6.01
--
Molecule: COc1c2c(cc3c1C(=O)Cc1ccc4c(c1CN(C)CC3)OCO4)OCO2
Assay Readout: pEC50
Observed Value: < 4.45

Record pEC50 per entry; entries follow.
1. Cc1ccc(SCC(CF)OC(C)n2cnc3c(=O)[nH]c(N)nc32)cc1 (stereo not given)
2. COc1ccc(/C(C)=N/NC(=O)c2ccncc2)cc1OC

Response line:
1. < 3.70
2. < 3.36

---

Would you kindly list EC50 for each of these compounds?
- Tested on: CEM cells HIV-1 protection, formazan growth assay
- Test Method Notes: NCI AIDS Antiviral Assay
Where a SMILES comes first, the peptide text is derived from it. The star is where a group is joined. Boc = CC(C)(C)OC(=O)*; OBn = c1ccc(CO*)cc1

Compound: COc1cc(C)cc2ccc(Br)c(O)c12
Assay Readout: EC50
Observed Value: > 200 µM

Record EC50 per entry; entries follow.
1. O=c1[nH]c(=O)n(C2CC(O)C(CO)O2)c2nc3ccc4ccccc4c3nc12 (configuration not stated)
2. CC(C(=O)ON1C(=O)CCC1=O)c1ccc(C(=O)c2ccccc2)s1 (configuration not stated)
3. CC(NC(=O)C(NC(=O)OC(C)(C)C)C(C)C)C(=O)N1CCCC1C(=O)NCC(=O)NC(C(=O)NCC(=O)OCc1ccccc1)C(C)C (configuration not stated) (Boc-VAPGVG-OBn; configuration not given here)
4. O=C1CC(CC(O)[C@@H]2CCCC[C@@H]2O)CC(=O)N1c1ccccc1 (some centres not stated)

Response line:
1: > 100 µM; 2: > 200 µM; 3: > 200 µM; 4: > 200 µM

Record EC50 per entry; entries follow.
1. CCOC(=O)CC1=NC(=Nc2cc(Cl)ccc2Cl)SC1
2. CC1CCC(=NNS(=O)(=O)c2ccc(N)cc2)CC1 (configuration not stated)
3. Nc1ccc(I)cn1
4. O=C1Nc2noc(=O)nc2NO1
5. O=C1c2ccccc2C(=O)N1/N=C\c1ccc(Br)cc1
6. COc1cccc(C2c3cc4c(cc3OC3COC(=O)C32)OCO4)c1OC (configuration not stated)
7. CC(/C=C/C(=O)c1sc(-n2nc(-c3ccccc3)cc2-c2ccccc2)nc1C)=C\c1ccccc1

Response line:
["> 77.6 µM", "> 129 µM", "> 200 µM", "> 200 µM", "> 21.9 µM", "> 200 µM", "> 27.5 µM"]
